Consider the following IC50 data for ROCK2 (Homo sapiens), collected from several reports.

Past entries and their recorded results:
Incoming: Look up IC50: `COc1cccc(CN2C(=O)N(c3ccc(-c4cn[nH]c4)c(C)n3)CC23CCNCC3)c1`
Outgoing: 0.003 to 0.03 µM

Incoming: Look up IC50: `Cc1ccc(F)c(CN2CCN(c3ccc4c(n3)OCc3n[nH]cc3-4)C2=O)c1`
Outgoing: 0.01 to 0.1 µM

Incoming: Look up IC50: `O=c1n(-c2ccc(-c3cn[nH]c3)cc2)nc(CO)n1Cc1ccccc1`
Outgoing: 0.005 to 0.05 µM

Attention now turns to another entry.
Incoming: Look up IC50: `CCc1cc(-n2nc(C)n(Cc3cccc(F)c3)c2=O)ccc1-c1cn[nH]c1`
Outgoing: 0.005 to 0.05 µM
